Molecular target: Serine/threonine-protein kinase Nek2 (Homo sapiens, UniProt P51955)
Sequence (P51955 whole entry): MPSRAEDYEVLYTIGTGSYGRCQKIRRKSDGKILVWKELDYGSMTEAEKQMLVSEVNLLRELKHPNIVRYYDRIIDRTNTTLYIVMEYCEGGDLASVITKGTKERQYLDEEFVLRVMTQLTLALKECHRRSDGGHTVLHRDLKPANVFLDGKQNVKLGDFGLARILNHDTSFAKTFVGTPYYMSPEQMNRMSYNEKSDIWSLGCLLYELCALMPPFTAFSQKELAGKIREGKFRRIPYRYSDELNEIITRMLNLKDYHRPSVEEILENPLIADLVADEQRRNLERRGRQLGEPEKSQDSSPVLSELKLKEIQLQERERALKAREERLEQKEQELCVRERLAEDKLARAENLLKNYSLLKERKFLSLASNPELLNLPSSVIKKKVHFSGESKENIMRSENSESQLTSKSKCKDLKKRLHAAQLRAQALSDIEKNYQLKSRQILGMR
pIC50: −log10 of the molar value.
Multiple publications report pIC50 for Serine/threonine-protein kinase Nek2 (Homo sapiens, UniProt P51955); what follows is a combined list.

[
  {
    "compound": "Cc1cc(-c2cnc(Nc3cc(Cl)cc(Cl)c3)nc2NC2CCC(N(C)C)CC2)on1 (stereo not drawn)",
    "result comparator": "=",
    "pIC50": 5.60
  },
  {
    "compound": "Cc1c(O)c(O)c(O)c(C=O)c1-c1cc2c(C=O)c(C)c(O)c(O)c2o1",
    "result comparator": "=",
    "pIC50": 5.42
  },
  {
    "compound": "N#CCNC(=O)c1ccc(-c2ccnc(Nc3ccc(N4CCOCC4)cc3)n2)cc1",
    "result comparator": "<",
    "pIC50": 6.00
  }
]
